assay: PhoP regulon inhibitors, Salmonella typhi PhoP promoter GFP reporter, confirmatory (AID 1850); details: fluorescence, 4 h, at 50 µM, active compounds read high;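 further: 0% = induced wells with vehicle and 100% = uninduced wells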
In all, about 310,000 compounds went through this assay and about 1,000 (0.32%) were called active. These entries were drawn from the full list. Potency and affinity values are given separately.
Exercise: state measured inhibition for each of the compounds provided.
A number alone suffices; assume %.

Using the record for O=C(Nc1ccncc1)Nc1ccncc1 , report its inhibition. 0.03

Nc1cn(C2OC(CO)C(O)C2O)c(=O)[nH]c1=O (centres undefined) , same question. 5.11

Another compound: CC(C)(C)C(=O)Nc1ccnn1C1CCN(C(=O)c2ccc(Cl)cc2F)CC1 -1.83

Please do the same for O=C(Nc1cc2c3c(c1)CC(=O)N3CCC2)c1ccc(Br)o1 as well. 2.71

Further, for CC(C)(C)c1ccc(OCCCN2CCCC2)cc1 ? -5.11

Now this one: CCc1ccc(NC2=NCCCS2)cc1 39.5

Again, but for O=C(COC(=O)CCCN1C(=O)c2cccc3cccc(c23)C1=O)Nc1cccc(C(F)(F)F)c1 -5.09

Then this compound: COC(=O)CSc1nc2nc(-c3cccs3)cc(C(F)(F)F)c2c(=O)[nH]1 -1.37

Proceed to CCC(C)c1ccccc1N1CC(C(=O)Nc2cc(S(=O)(=O)N3CCOCC3)ccc2OC)CC1=O (centres undefined) 1.56

Another: CC(=O)NC(c1ccccc1)c1cc([N+](=O)[O-])c2cccnc2c1O (centres undefined) 0.16

Try this compound next: S=C(NCc1ccncc1)Nc1ccc(Cl)cc1 -0.61

# repeat for CC(=O)OCC1OC(n2cc(F)c(=O)[nH]c2=O)C(OC(C)=O)C1OC(C)=O (centres undefined) -1.38

Entry Cn1ccnc1SCC(=O)NC1CCCC1 please -6.69

Here is the next compound: COCCNCCCOc1ccc(C(C)(C)c2ccccc2)cc1 3.55

###

Assignment: determine reported inhibition for the given compounds.
test: PhoP regulon inhibitors, Salmonella typhi PhoP promoter GFP reporter, confirmatory (AID 1850); details: fluorescence, 4 h, at 50 µM, active compounds read high;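 further: 0% = induced wells with vehicle and 100% = uninduced wells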
Hit rate of the full screen: of about 310,000 compounds, about 1,000 (0.32%) were called active. Only a sample is shown. Potency and affinity values are given separately.
// note: answer is a bare numeric in %

Given the entry CC(C)NC(=O)C1CCCN(S(=O)(=O)c2cccc3nonc23)C1 (stereo not drawn) , report its measured inhibition. 5.72

Check NC(=O)c1nsc(C(=O)N(c2ccc3c(c2)OCO3)C(C(=O)NCC2CCCO2)c2ccc(F)cc2)c1N (stereo not drawn) too. 6.99

Entry O=C1Nc2ccccc2Nc2ccc([N+](=O)[O-])cc21 please -12.2

Note, next up: Cc1nc2ccc(C(=O)Nc3ccc(N(C)C)cc3)cc2s1 -5.67

Follow-up entry: CN(Cc1ccccc1)CC(O)COc1ccc(CNCc2cc3ccccc3s2)cc1 (stereo not drawn) 5.91

Next compound up: Cc1ccc(-c2cc(C(=O)OCC(=O)Nc3ncc(C(F)(F)F)cc3Cl)c3ccccc3n2)cc1 -6.32

Same again, this time with COc1ccc(/C(O)=C/C(=O)C(=O)NNC(=O)c2ccccc2)cc1 12.4

And what about the compound COc1ccccc1C(=O)NC(C(=O)NCCc1nc2ccccc2[nH]1)=C(C)C ? -1.36

And for Cc1ccccc1OCC(=O)Nc1nc2ccccc2[nH]1 ? 9.79

Field entry: COc1ccc(CC(=O)c2ccc(O)cc2O)cc1 -0.72

Moving on to the next compound: CCCCCCn1cc(C(=O)O)c(=O)c2cc(F)c(N3CCN(C)CC3)cc21 -6.43

Moving on to the next compound: O=C1Nc2ccccc2C1=Nc1cccc([N+](=O)[O-])c1 6.17

Please give the result for CCC(=C(c1ccc(OC)cc1)c1ccc(OC)cc1)c1cn(CC(O)CN(CCO)CCO)c2ccccc12 (stereo not drawn) too. 1.98

###

So I've got a bunch of compounds here, and I need their inhibition values.
experiment: PhoP regulon inhibitors, Salmonella typhi PhoP promoter GFP reporter, confirmatory (AID 1850); details: fluorescence, 4 h, at 50 µM, active compounds read high;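 further: 0% = induced wells with vehicle and 100% = uninduced wells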
Hit rate of the full screen: of about 310,000 compounds, about 1,000 (0.32%) were called active. A selection follows. Entries with a potency or affinity are not part of this list.
API: value field is a number in %; no unit string.

Need inhibition of COc1ccc(NC(=O)C2CCCN(C(=O)Nc3ccc(OC)cc3)C2)cc1 (stereo unspecified) , thanks. 13.2

Same question for Cc1nc2ccccc2c(=O)n1/N=C/c1cn[nH]c1-c1ccccc1 please. -0.17

What would you report for CCC(=NCc1cccnc1)c1c(O)n(-c2ccc(C)cc2)c(=O)[nH]c1=O ? -4.52

Then this compound: O=C(OCC(=O)N(Cc1ccccc1)Cc1ccccc1)c1ccccc1NCCO -4.63

Also need CC(=O)c1c(C(C)=O)c(C)n(-c2ccc(N)c(C)c2)c1C , thanks. -3.65

Field entry: C[C@H]1[C@H](NC(=O)C(=NOC(C)(C)C(=O)O)c2csc(N)n2)C(=O)N1S(=O)(=O)O 1.3

Can you handle Cc1nc2ccccc2c(=O)n1/N=C/c1cc(Br)cc(Br)c1O next? 9.81

And the next one, O=C(COC(=O)c1ccc([N+](=O)[O-])s1)Nc1ccccc1 ? 4.19

Try this compound too: CCCCOC(=O)C[N+](C)(C)CCOC1CC2CCC1(C)C2(C)C (stereo unspecified) -1.52

Query Cc1ccc(-c2[nH]ncc2/C=N/n2c(COc3ccccc3)nc3ccccc3c2=O)cc1 next -8.67

Then this compound: COc1cc2oc(=O)cc(C)c2c(OC)c1OC -3.26

Also COc1ccc(C2CC(=O)C3=C(C2)Nc2ccccc2NC3c2coc3ccccc3c2=O)cc1OC (stereo unspecified) , if possible. -2.61

Same again, this time with COc1ccc(N2CCN(C(c3cccs3)C(C)NS(C)(=O)=O)CC2)cc1 (stereo unspecified) -6.29

Can you check CC(C)NC(=O)NC(=O)COC(=O)CCOc1ccccc1 next? 1.53

Also CC[N+](C)(C)CCN(Cc1ccc(Cl)cc1)c1ccccn1 , if possible. 1.18

Field entry: CCCCn1c(N)c(N(CCC(C)C)C(=O)c2sc3nc4n(c(=O)c3c2C)CCC4)c(=O)[nH]c1=O -5.32

###

Assign inhibition to each entry below.
assay: PhoP regulon inhibitors, Salmonella typhi PhoP promoter GFP reporter, confirmatory (AID 1850); details: fluorescence, 4 h, at 50 µM, active compounds read high;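 further: 0% = induced wells with vehicle and 100% = uninduced wells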
Hit rate of the full screen: of about 310,000 compounds, about 1,000 (0.32%) were called active. Not all results are given here. Measured potencies and affinities stand elsewhere.
Answer in %, number only, no unit symbol.

inhibition lookup needed for O=C(C[n+]1ccn(-c2ccccc2)c1)c1ccc([N+](=O)[O-])cc1 , thanks. 4.4

Again, but for O=C(Nc1ccc(F)cc1)c1cccnc1 -6.59

// same read-out, input: CC(=O)c1ccc(NC(=O)CSc2nc(N)c3cc4c(nc3n2)CCCC4)cc1 -7.23

Further, for COC/C=C/C1=CC2=CC(=O)C(C)(OC(=O)c3cnc4ccccc4n3)C(=O)C2=CN1CCc1ccccn1 (stereo not given) ? 0.66

Same for CC1(C)Cc2cccc(OCC(=O)OCC(=O)NCc3ccc(F)cc3)c2O1 5.2

C/C(=N/Oc1nc(C)cc(C)n1)c1ccccc1 ? -15.4

Likewise for CC1CCC(C(C)C)C(OC(=O)CSc2nccc(=O)[nH]2)C1 (stereo not given) ? -9.72

Further, for O=[N+]([O-])c1ccc(N/N=C/c2ccccc2)c(F)c1 ? -8.42

// same read-out, input: COC(=O)C1=NN(c2ccc(C)cc2)C2(S1)SC(C(C)=O)=C(C)N2c1ccccc1 (stereo not given) -16.3

Next entry: Cc1cc(Nc2ccccc2)nc2cc(O)ccc12 11.4

Item: Cc1ccc(NC(=S)NC(CO)C(O)c2ccc([N+](=O)[O-])cc2)cc1 (stereo not given) 8.81

# iterate: COCCSc1nnc(NC(=O)C2CCCO2)s1 (stereo not given) -16.4

And the next one, CN1/C(=C\C=O)C(C)(C)c2ccccc21 ? 1.84

And O=C(O)C[C@H]1c2ccccc2S(=O)(=O)N1c1ccccc1 ? -12.5

Record: CCCOc1cc2c(C#N)c(N3CCCC3)nc(N)c2c(N)n1 1.34

###

assay: PhoP regulon inhibitors, Salmonella typhi PhoP promoter GFP reporter, confirmatory (AID 1850); details: fluorescence, 4 h, at 50 µM, active compounds read high;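 further: 0% = induced wells with vehicle and 100% = uninduced wells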
Hit rate of the full screen: of about 310,000 compounds, about 1,000 (0.32%) were called active. These entries were drawn from the full list. Potency and affinity values are given separately.
measurement.name: inhibition (%)
Reply with just the number (in %).

Could you share which inhibition value was measured for COCCNCCCOc1ccc(Br)cc1Cl ? 5.48

Thanks! And Clc1ccc(Cl)c(OCCCCNCc2ccccc2)c1 ? 13.1

Another compound: Cc1ccc(NC(=O)CCC(=O)NNC(=S)Nc2ccc(F)cc2F)cc1C -6.55

One more compound: Fc1ccc(C2CCCN2Cc2nc(-c3cnccn3)no2)cc1 (centres undefined) -2.32

Similarly, Cc1c2ccccc2nc2ccccc12 ? -14.3

Entry CC(=O)c1cccc(OCC(O)CNCCc2ccc(Cl)cc2)c1 (centres undefined) please 4.73

Repeat for the following compound: COc1ccc(NCC(O)COc2ccc(C(C)(C)C)cc2)cc1 (centres undefined) 10.5

Input Cc1ccc2nc(C)c(Cl)c(=O)n2c1 -9.57

Next compound: CCOCCCNC(=O)c1ccc(N(C)S(=O)(=O)c2ccc(OC)cc2)cc1 -7.69

Subsequent entry: COc1cc([N+](=O)[O-])cc(/C=N\NC(=O)C2COc3ccccc3O2)c1O (centres undefined) 16.3

Repeat with OC(CNCCC(c1ccccc1)c1ccccc1)COc1ccccc1 (centres undefined) -4.1

What about this compound? OC(CNCc1ccc(Cl)cc1)COc1ccccc1 (centres undefined) 11.1

Let us now turn to CC1SC(c2ccc(F)cc2)N(CCc2ccccc2)C1=O (centres undefined) 11.2

And CN(C)c1nc(SCC(=O)Nc2ccccc2)nc(N2CCOCC2)n1 ? 3.38
